Biological target: HCV NS5B polymerase (His-tagged, C-terminal 21 amino acid deleted NS5B, HC-J4) (Hepatitis C virus genotype 1b, UniProt O92972)
Construct: The cDNA encoding NS5B amino acid 1-570 (HC-J4, genotype 1b); His tag (His6, from pET-21b) (C); made in house; host or cells: E. coli BL21 (DE3)
Sequence (O92972 2417-3000, looked up, stated change not applied): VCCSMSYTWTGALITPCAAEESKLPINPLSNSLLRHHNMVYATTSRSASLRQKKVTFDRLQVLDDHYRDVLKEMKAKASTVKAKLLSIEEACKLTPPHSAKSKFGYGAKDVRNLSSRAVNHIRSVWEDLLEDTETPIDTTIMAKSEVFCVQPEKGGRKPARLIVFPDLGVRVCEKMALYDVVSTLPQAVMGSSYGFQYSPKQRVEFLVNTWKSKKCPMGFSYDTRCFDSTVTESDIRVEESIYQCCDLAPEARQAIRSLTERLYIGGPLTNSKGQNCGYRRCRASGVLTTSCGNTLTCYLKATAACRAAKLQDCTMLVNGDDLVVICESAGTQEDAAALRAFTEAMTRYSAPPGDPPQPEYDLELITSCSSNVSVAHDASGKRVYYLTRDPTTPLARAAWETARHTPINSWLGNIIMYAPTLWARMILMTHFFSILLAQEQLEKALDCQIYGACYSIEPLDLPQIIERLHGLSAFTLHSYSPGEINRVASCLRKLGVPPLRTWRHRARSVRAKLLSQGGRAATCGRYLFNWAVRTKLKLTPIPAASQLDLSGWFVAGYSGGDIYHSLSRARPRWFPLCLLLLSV
Test: NS5b polymerase assay (biochemical RdRp assay, 3H-GTP incorporation, SPA beads)
Set-up: species or system HCV genotype 1b
Details: NS5B Polymerase Assay IC50 (μM)
experimentalReadout: IC50

1) COc1ccc(C2CC(=O)C3=C(C2)Nc2ccccc2NC3c2ccc(Cl)cc2)cc1 (stereo not shown) [compound 416] | > 33.3 µM

Field: next molecule
Data request: Report IC50 for COc1ccc(C2CC(=O)C3=C(C2)Nc2ccccc2NC3c2ccc(C)cc2)cc1 (stereo not shown) [compound 384] please.
Data returned: 4.58 µM

Where do these numbers come from? They come from patent US20090221559A1.
